Sequence of the target: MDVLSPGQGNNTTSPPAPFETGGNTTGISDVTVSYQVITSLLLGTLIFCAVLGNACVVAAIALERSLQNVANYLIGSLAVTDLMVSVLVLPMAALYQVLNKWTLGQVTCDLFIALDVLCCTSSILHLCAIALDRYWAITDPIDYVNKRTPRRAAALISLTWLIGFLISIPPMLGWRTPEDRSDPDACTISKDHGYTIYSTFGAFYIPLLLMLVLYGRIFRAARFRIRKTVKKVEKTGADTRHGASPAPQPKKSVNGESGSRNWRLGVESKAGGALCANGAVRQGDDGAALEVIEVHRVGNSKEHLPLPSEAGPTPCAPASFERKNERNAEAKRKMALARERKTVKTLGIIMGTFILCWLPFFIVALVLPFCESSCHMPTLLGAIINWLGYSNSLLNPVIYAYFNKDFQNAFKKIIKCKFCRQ
endpoint_name: Ki (nM)
Give the value in nM but do not write nM after it.

CCc1ccc(OC)c(C(=O)NC[C@@H]2CCCN2CC)c1O [dechloroeticlopride, reference compound] ... 1800

Requested field: Ki. Item: CCc1cc(Cl)c(OC)c(C(=O)NC[C@@H]2CCCN2CC)c1O [eticlopride] 570

----------
subject_of_test: human dopamine receptor subtype D2L (Homo sapiens, UniProt P14416)
Sequence (P14416 whole entry): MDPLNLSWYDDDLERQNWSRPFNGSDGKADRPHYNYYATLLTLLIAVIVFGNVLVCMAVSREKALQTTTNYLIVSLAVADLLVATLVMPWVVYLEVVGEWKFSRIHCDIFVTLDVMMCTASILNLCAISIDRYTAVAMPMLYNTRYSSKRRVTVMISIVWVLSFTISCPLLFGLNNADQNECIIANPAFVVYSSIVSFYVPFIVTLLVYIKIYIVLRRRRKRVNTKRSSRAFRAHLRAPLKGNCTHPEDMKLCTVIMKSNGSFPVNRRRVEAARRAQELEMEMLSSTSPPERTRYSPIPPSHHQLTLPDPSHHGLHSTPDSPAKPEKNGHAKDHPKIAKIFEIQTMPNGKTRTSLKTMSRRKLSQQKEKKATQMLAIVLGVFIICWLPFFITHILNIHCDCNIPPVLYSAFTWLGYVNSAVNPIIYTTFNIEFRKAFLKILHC
procedure_details: Radioligand displacement, [3H]spiperone, CHO cell membranes
Format: binding
assay_setup: [3H]spiperone; mean ± SEM of 4-9 experiments; compounds 1, 2, 3: ± SD of two experiments; read-out: Ki value D2L
endpoint_name: log10 of Ki (log10 of the value in nM)
In our notation, the value equals log10 of Ki in nM.

CCc1ccc(OC)c(C(=O)NC[C@@H]2CCCN2CC)c1O [dechloroeticlopride, reference compound] ... 0.38

So what's the measured log10 of Ki for this one? CCc1cc(Cl)c(OC)c(C(=O)NC[C@@H]2CCCN2CC)c1OCc1ccccc1 [compound 3] 3.68

CCc1ccc(OC)c(C(=O)NC[C@@H]2CCCN2CC)c1OCc1ccccc1[N+](=O)[O-] [compound 4] , same question. 2.32

Follow-up item: CCc1ccc(OC)c(C(=O)NC[C@@H]2CCCN2CC)c1OCc1cc(OC)c(OC)cc1[N+](=O)[O-] [compound 5] 2.54

Also check CCc1ccc(OC)c(C(=O)NC[C@@H]2CCCN2CC)c1OCc1ccccc1 [compound 6] 3.11

----------
subject_of_test: UniProt:P21917
Sequence (P21917 whole entry): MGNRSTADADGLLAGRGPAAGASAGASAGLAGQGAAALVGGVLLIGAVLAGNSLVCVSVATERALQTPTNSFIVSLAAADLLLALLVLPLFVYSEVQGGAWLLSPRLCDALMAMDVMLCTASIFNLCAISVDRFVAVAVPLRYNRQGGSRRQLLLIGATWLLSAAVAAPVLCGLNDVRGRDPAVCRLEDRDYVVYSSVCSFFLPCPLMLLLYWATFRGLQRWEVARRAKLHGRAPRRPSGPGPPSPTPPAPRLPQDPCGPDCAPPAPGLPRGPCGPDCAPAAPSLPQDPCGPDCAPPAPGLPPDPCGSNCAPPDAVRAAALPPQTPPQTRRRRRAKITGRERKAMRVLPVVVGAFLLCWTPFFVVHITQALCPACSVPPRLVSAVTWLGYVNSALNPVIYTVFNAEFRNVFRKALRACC
procedure_details: Radioligand displacement, [3H]spiperone, CHO cell membranes
Assay type: binding
endpoint_name: pKi
pKi is defined as minus the log10 of a concentration measured in mol/L.

Item under review: CCc1cc(Cl)c(OC)c(C(=O)NC[C@@H]2CCCN2CC)c1O [eticlopride] . Reported pKi? 6.92

----------
subject_of_test: dopamine D2S receptor co-expressed with hybrid Gαqi in HEK293T cells (Homo sapiens)
Construct: expressed in transfected cells; host or cells: HEK-293T cells, transient co-transfection
procedure_details: IP accumulation assay (IP-One HTRF), agonist / inverse agonist effect
Type: cell-based
assay_setup: HEK-293T; relative to full effect of quinpirole (100%) and buffer (0%)
endpoint_name: Emax (%)
Lab book: enter the figure in %, no units written.

CCc1ccc(OC)c(C(=O)NC[C@@H]2CCCN2CC)c1OCc1ccccc1 ... -22
CCc1ccc(OC)c(C(=O)NC[C@@H]2CCCN2CC)c1O [dechloroeticlopride, reference compound] ... -17
CCc1ccc(OC)c(C(=O)NC[C@@H]2CCCN2CC)c1OCc1ccccc1[N+](=O)[O-] ... -21

The record that follows has no Emax shown yet.
What value of Emax has been recorded for this entry: "CCc1ccc(OC)c(C(=O)NC[C@@H]2CCCN2CC)c1OCc1cc(OC)c(OC)cc1[N+](=O)[O-]" -21

----------
subject_of_test: dopamine D2S receptor co-expressed with hybrid Gαqi in HEK293T cells (Homo sapiens)
Construct: expressed in transfected cells; host or cells: HEK-293T cells, transient co-transfection
procedure_details: IP accumulation assay (IP-One HTRF), inhibition of 10 nM quinpirole
Type: cell-based
assay_setup: HEK-293T; in presence of 10 nM quinpirole; relative to quinpirole (100%) and buffer (0%); read-out: inhibitory effect Emax
endpoint_name: Emax (%)
Answer in %, number only, no unit symbol.

CCc1ccc(OC)c(C(=O)NC[C@@H]2CCCN2CC)c1OCc1cc(OC)c(OC)cc1[N+](=O)[O-] ... -28
CCc1ccc(OC)c(C(=O)NC[C@@H]2CCCN2CC)c1O [dechloroeticlopride, reference compound] ... -20

// Emax lookup, key: "CCc1ccc(OC)c(C(=O)NC[C@@H]2CCCN2CC)c1OCc1ccccc1[N+](=O)[O-]" -29

Same for "CCc1ccc(OC)c(C(=O)NC[C@@H]2CCCN2CC)c1OCc1ccccc1" -17

----------
subject_of_test: D2 and D3 receptors
procedure_details: Radioligand binding, summary over D2 and D3 subtypes
assay_setup: range over D2L, D2S, D3, stated in text
Catalogue of Ki readings, one per entry.

CCc1cc(Cl)c(OC)c(C(=O)NC[C@@H]2CCCN2CC)c1O [eticlopride] ... 210 to 280 pM

Attention now turns to another entry.
Return reported Ki; argument: CCc1ccc(OC)c(C(=O)NC[C@@H]2CCCN2CC)c1O [dechloroeticlopride, reference compound] 1200 to 2400 pM

----------
subject_of_test: UniProt P08913
Sequence (P08913 whole entry): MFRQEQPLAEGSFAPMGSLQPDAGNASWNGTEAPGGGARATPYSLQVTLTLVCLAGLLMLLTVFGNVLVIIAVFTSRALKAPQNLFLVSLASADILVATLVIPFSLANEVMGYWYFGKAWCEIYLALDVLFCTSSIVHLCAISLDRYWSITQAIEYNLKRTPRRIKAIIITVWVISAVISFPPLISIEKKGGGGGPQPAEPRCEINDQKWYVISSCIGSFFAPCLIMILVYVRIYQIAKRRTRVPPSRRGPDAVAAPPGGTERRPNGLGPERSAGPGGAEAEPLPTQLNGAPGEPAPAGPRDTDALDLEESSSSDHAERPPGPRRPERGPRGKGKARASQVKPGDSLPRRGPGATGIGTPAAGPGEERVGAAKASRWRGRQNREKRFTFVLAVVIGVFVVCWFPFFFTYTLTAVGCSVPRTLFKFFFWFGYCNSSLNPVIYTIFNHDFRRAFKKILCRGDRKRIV
Recorded Ki for the following compounds
Record the value in nM, omitting the unit from your answer.

CCc1cc(Cl)c(OC)c(C(=O)NC[C@@H]2CCCN2CC)c1O [eticlopride] ... 66

Missing value: Ki, UniProt P08913, entry CCc1ccc(OC)c(C(=O)NC[C@@H]2CCCN2CC)c1O [dechloroeticlopride, reference compound] . Fill in? 100

----------
In this section, each of the compounds is paired with its reported Ki.
subject_of_test: UniProtKB P35462
Sequence (P35462 whole entry): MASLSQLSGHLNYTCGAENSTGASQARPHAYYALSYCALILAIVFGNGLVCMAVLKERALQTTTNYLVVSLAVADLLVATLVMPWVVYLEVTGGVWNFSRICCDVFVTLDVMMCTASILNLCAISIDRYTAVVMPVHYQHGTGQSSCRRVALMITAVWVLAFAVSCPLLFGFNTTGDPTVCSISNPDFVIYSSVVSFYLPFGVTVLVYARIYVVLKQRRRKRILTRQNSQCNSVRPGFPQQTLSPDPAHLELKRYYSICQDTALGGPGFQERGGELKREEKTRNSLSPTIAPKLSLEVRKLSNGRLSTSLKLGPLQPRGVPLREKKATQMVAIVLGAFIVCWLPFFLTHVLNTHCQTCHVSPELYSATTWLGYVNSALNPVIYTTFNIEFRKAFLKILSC
Please state the figure in nM; there is no need to write the unit.

# count of solved cases: 2
CCc1ccc(OC)c(C(=O)NC[C@@H]2CCCN2CC)c1OCc1ccccc1[N+](=O)[O-] ... 200
CCc1ccc(OC)c(C(=O)NC[C@@H]2CCCN2CC)c1OCc1cc(OC)c(OC)cc1[N+](=O)[O-] ... 140

I have this compound here, "CCc1cc(Cl)c(OC)c(C(=O)NC[C@@H]2CCCN2CC)c1OCc1ccccc1" , and I need its recorded Ki. 5600

----------
Protein target, amino acids: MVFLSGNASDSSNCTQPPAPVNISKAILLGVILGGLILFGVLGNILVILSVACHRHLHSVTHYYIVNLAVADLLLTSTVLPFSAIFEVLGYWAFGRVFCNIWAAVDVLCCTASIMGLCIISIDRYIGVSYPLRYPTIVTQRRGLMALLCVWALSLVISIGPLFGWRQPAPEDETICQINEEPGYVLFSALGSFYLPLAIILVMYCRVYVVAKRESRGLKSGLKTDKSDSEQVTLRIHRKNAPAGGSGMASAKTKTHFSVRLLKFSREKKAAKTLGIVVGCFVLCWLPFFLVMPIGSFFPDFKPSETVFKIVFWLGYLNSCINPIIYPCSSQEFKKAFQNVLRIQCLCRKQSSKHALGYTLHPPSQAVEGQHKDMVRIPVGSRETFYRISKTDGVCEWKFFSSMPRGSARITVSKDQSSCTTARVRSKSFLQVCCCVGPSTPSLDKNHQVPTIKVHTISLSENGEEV
compounds and their reported Ki
Kindly provide the numeric value in nM only, without the unit symbol.

CCc1cc(Cl)c(OC)c(C(=O)NC[C@@H]2CCCN2CC)c1O [eticlopride] ... 81

Okay, now this compound:
For CCc1ccc(OC)c(C(=O)NC[C@@H]2CCCN2CC)c1O [dechloroeticlopride, reference compound] , what is its reported Ki? 880

----------
subject_of_test: human dopamine receptor subtype D2S (Homo sapiens)
Sequence (P14416 1-414 isoform P14416-2): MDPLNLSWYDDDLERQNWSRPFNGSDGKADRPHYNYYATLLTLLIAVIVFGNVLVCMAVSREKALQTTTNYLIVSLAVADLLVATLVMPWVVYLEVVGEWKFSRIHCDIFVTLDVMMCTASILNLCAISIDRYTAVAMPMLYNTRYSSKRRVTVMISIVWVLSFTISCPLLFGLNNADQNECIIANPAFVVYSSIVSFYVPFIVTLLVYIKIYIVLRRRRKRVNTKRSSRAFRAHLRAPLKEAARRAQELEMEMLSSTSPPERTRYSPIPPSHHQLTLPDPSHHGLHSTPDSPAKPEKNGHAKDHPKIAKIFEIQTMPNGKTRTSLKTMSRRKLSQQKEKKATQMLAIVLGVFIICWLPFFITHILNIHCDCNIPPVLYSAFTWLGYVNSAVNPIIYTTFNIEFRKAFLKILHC
procedure_details: Radioligand displacement, [3H]spiperone, CHO cell membranes
Type: binding
endpoint_name: Ki (nM)
Answer format: numeric, nM implied, no suffix.

Record CCc1cc(Cl)c(OC)c(C(=O)NC[C@@H]2CCCN2CC)c1O [eticlopride] : what is its Ki with human dopamine receptor subtype D2S (Homo sapiens)? 0.28

----------
subject_of_test: human dopamine receptor subtype D2L (Homo sapiens)
procedure_details: Radioligand displacement, [3H]spiperone, CHO cell membranes
Format: binding
endpoint_name: Ki (nM)
Please respond with the number in nM and leave the unit unwritten.

Form field - read-out: Ki; system: human dopamine receptor subtype D2L (Homo sapiens); submitted item: CCc1cc(Cl)c(OC)c(C(=O)NC[C@@H]2CCCN2CC)c1O [eticlopride] 0.25

----------
subject_of_test: dopamine D2S receptor co-expressed with hybrid Gαqi in HEK293T cells (Homo sapiens, UniProt P14416)
Sequence (P14416 1-414 isoform P14416-2): as the sequence (P14416 1-414 isoform P14416-2) above
procedure_details: IP accumulation assay (IP-One HTRF), inhibition of 10 nM quinpirole
assay_setup: blocking of the agonist effect of 10 nM quinpirole, ± SEM, 4-6 experiments; read-out: inhibitory effect IC50
endpoint_name: IC50 (nM)
Give the value, in units of nM, as a plain number.

Known results for compounds:
CCc1ccc(OC)c(C(=O)NC[C@@H]2CCCN2CC)c1OCc1ccccc1[N+](=O)[O-] ... 850
CCc1ccc(OC)c(C(=O)NC[C@@H]2CCCN2CC)c1OCc1cc(OC)c(OC)cc1[N+](=O)[O-] ... 990
CCc1ccc(OC)c(C(=O)NC[C@@H]2CCCN2CC)c1O [dechloroeticlopride, reference compound] ... 9.6

Moving on to another compound below.
Need IC50 of "CCc1ccc(OC)c(C(=O)NC[C@@H]2CCCN2CC)c1OCc1ccccc1" , thanks. 5500
